The following compounds are listed with their measured MTD (maximum tolerated dose, lethal for 10% of normal mice; = LD10) values.
# Tested on: normal CDF1 male mice
# assayComment: Maximum tolerated dose (LD10) in normal, tumor-free CDF1 male mice
# Assay type: in vivo
# conditionDescription: three injections ip, q4d 1, 5, 9; deaths during 21 days
Starred links: 1 amine or outer side, 2 acyl side, 3 side chain; linkers in the order of their positions; H or OH if unused. Positions of bridges follow the written chain, without caps; N, C: chain ends. Non-standard residues stand in square brackets, D forms with d. Residues, ends and D or L forms follow the SMILES beside them. Chains are numbered I, II in the order given. Actinocin(9to1) = Cc1c2oc3c(C)ccc(C(=O)[*:1])c3nc-2c(C(=O)[*:2])c(N)c1=O; NMeV = CN[C@H](C(=O)O)C(C)C; Sar = CNCC(=O)O
The reply should be a number in milligrams/kilogram, with the unit left off.

Q: Entry under review: Cc1c2oc3c(C)c(OCC4CO4)cc(C(=O)N[C@@H]4C(=O)N[C@H](C(C)C)C(=O)N5CCC[C@H]5C(=O)N(C)CC(=O)N(C)[C@@H](C(C)C)C(=O)O[C@@H]4C)c3nc-2c(C(=O)N[C@@H]2C(=O)N[C@H](C(C)C)C(=O)N3CCC[C@H]3C(=O)N(C)CC(=O)N(C)[C@@H](C(C)C)C(=O)O[C@@H]2C)c(N)c1=O (stereo partly shown) [Compound 3b, 7-(2,3-Epoxypropoxy)actinomycin D] . Reported MTD (maximum tolerated dose, lethal for 10% of normal mice; = LD10)?
A: 3.6

Q: Entry Cc1c2oc3c(C)c(OCC(O)CO)cc(C(=O)N[C@@H]4C(=O)N[C@H](C(C)C)C(=O)N5CCC[C@H]5C(=O)N(C)CC(=O)N(C)[C@@H](C(C)C)C(=O)O[C@@H]4C)c3nc-2c(C(=O)N[C@@H]2C(=O)N[C@H](C(C)C)C(=O)N3CCC[C@H]3C(=O)N(C)CC(=O)N(C)[C@@H](C(C)C)C(=O)O[C@@H]2C)c(N)c1=O (stereo partly shown) [Compound 4b, 7-(2,3-Dihydroxypropoxy) actinomycin D] please
A: 1.8

Q: Entry Cc1c2oc3c(C)c(O)cc(C(=O)N[C@@H]4C(=O)N[C@H](C(C)C)C(=O)N5CCC[C@H]5C(=O)N(C)CC(=O)N(C)[C@@H](C(C)C)C(=O)O[C@@H]4C)c3nc-2c(C(=O)N[C@@H]2C(=O)N[C@H](C(C)C)C(=O)N3CCC[C@H]3C(=O)N(C)CC(=O)N(C)[C@@H](C(C)C)C(=O)O[C@@H]2C)c(N)c1=O [Compound 2b, 7-hydroxyactinomycin D, reference compound] please
A: 4.2

Q: Entry Cc1c2oc3c(C)ccc(C(=O)N[C@@H]4C(=O)N[C@H](C(C)C)C(=O)N5CCC[C@H]5C(=O)N(C)CC(=O)N(C)[C@@H](C(C)C)C(=O)O[C@@H]4C)c3nc-2c(C(=O)N[C@@H]2C(=O)N[C@H](C(C)C)C(=O)N3CCC[C@H]3C(=O)N(C)CC(=O)N(C)[C@@H](C(C)C)C(=O)O[C@@H]2C)c(N)c1=O [Compound 1b, Actinomycin D, reference compound] (I: T[dV]P[Sar][NMeV] / II: T[dV]P[Sar][NMeV]; ester I:1-I:C, II:1-II:C; linker I:N-II:N via Actinocin(9to1)) please
A: 0.25
